target: STAT3 protein (UniProt P40763 1-770, limits assumed); assay: SPR (Biacore X), STAT3 (4000 RU) on CM5 chip, peptide at 2, 5 and 7.5 µM
Sequence (P40763 whole entry): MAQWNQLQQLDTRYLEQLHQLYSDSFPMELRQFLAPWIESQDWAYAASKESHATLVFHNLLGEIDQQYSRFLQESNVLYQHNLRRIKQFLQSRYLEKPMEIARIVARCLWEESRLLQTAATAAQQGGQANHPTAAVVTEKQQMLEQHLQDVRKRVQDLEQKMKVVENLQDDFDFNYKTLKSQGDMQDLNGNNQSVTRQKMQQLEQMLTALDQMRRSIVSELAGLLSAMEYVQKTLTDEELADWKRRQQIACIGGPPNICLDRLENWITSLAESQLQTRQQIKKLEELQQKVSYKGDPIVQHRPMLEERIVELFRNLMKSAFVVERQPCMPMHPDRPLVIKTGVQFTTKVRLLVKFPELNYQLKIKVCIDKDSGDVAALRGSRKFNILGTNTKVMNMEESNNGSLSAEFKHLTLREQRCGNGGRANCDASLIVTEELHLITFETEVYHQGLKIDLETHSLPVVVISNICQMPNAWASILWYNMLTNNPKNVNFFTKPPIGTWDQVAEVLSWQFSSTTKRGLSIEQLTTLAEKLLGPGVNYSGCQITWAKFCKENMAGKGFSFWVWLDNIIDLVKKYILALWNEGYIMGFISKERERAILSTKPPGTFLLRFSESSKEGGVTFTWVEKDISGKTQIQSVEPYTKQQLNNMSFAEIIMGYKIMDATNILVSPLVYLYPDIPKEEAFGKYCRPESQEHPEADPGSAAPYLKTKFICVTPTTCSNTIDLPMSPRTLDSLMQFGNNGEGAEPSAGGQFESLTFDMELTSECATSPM
pKd: −log10 of the molar value.
MEASURE: pKd

[[record]]
binder = "QAYYIPGSWTWENGKWTWKGLWGPEF (also called BPB1; Peptidel) [STAT3-specific bipodal-peptide binder Peptide 1]"
measure = "pKd"
result_value = "~5.77"


FYI, the data here is from patent US20120309934A1.
